Origin of the recorded values: patent US20240180880A1

- Test system: 284 cell lines
- assay-method-text: cells
- run-conditions: Homo sapiens, COLO 205, read-out: Cell Count IC50, Colo 205; Colon
- Method: A screen of 284 cell lines to assess the antiproliferative effect of EHMT2 inhibition was conducted by treating cell lines in 384-well format with a half-log step dilutions of Compound 205 over 10 concentrations with a maximum concentration of 0.1% v/v DMSO. Cells were plated on Day 0 and treated with compound on Day 1. […] Automated fluorescence microscopy was carried out using a Molecular Devices ImageXpress Micro XL high-content imager, and images were collected with a 4× objective. […]
pIC50: −log10 of the molar value.
quantity: pIC50

# CNc1cc(C)nc(Nc2ccc(OC)c(OCCCN3CCCC3)c2)n1 with 284 cell lines: pIC50 is 5.00 to 6.00
